Recorded values, source PubChem BioAssay (NCATS).

experiment: qHTS of pediatric cancer cell lines to identify multiple opportunities for drug repurposing: Primary screen for SJ-GBM2 cells (AID 1347091); conditions: SJ-GBM2 viability, CellTiter-Glo luminescence, 48 h; series mostly up to 46 µM
Records with an inconclusive call do not appear. Activity calls are given as the source filed them. Calls follow the shape of the dose curve; as a rule, active = well fitted cell-killing curve with a large enough effect; inconclusive = small, poorly fitted or top-dose-only effect; inactive = no such curve, though single readings can be large or run the other way.
Answer with one of the outcomes given here: TRUE (active), FALSE (inactive)

CC[C@@H]1[C@@H](C)O[C@@](O)([C@@H](C)[C@H](O)[C@H](C)[C@H]2OC(=O)C=CC=C[C@@H](C)[C@@H]([C@@H](C)[C@@H](O)[C@H](C)[C@@]3(O)C[C@H](O[C@H]4C[C@H](O)[C@H](O)[C@H](C)O4)[C@H](CC)[C@@H](C)O3)OC(=O)C=CC=C[C@@H]2C)C[C@H]1O[C@H]1C[C@H](O)[C@H](O)[C@H](C)O1 : TRUE
N=c1c2c(-c3ccccc3)c(-c3ccccc3)n(Cc3ccccc3)c2ncn1C1CCC(O)CC1 (configuration not stated) : TRUE
CC(=Cc1csc(C)n1)[C@@H]1C[C@H]2O[C@@H]2CCC[C@H](C)[C@@H](O)[C@@H](C)C(=O)C(C)(C)[C@@H](O)CC(=O)O1 : TRUE
CSCC[C@@H](NC(=O)[C@@H](Cc1ccccc1)NC(=O)CNC(=O)CNC(=O)[C@@H](N)Cc1ccc(O)cc1)C(=O)O : FALSE
CC(=O)OCC1=C(C(=O)O)N2C(=O)[C@@H](N)[C@@H]2SC1 : TRUE

Input: Could you kindly confirm the outcome this assay logged for CC(C)(O)C=CC(=O)[C@](C)(O)[C@H]1[C@H](O)C[C@]2(C)[C@@H]3CC=C4[C@@H](C=C(O)C(=O)C4(C)C)[C@]3(C)C(=O)C[C@@]12C ?
Output: TRUE

Input: Could you please tell me the result logged for CC[C@@]1(O)C(=O)OCc2c1cc1n(c2=O)Cc2cc3ccccc3nc2-1 in this assay?
Output: TRUE

Input: Assay outcome for C1=C2CCCN[C@H]2[C@@H]2C[C@H]1[C@@H]1CCCCN1C2 : what was it?
Output: FALSE

Input: Returns: the outcome recorded for CN1CCN(c2ccc([N+](=O)[O-])c3no[n+]([O-])c23)CC1 in this assay.
Output: TRUE

Input: Hey, what did the test say about O=[N+]([O-])c1c(Cl)c(Cl)cc(Cl)c1Cl ?
Output: FALSE

Input: Which outcome did this test record for the molecule Fc1cc(Br)ccc1CBr ?
Output: FALSE

Input: For this molecule, state the assay outcome: COc1cc([C@@H]2c3cc4c(cc3[C@@H](O)C3COC(=O)C32)OCO4)cc(OC)c1O (some centres not stated)
Output: TRUE

---

assay: Inducers of the Endoplasmic Reticulum Stress Response (ERSR) in human glioma: Validation (AID 504836); conditions: human glioma cells, ER stress response reporter; series mostly up to 38.3 µM; also: 0% is about no effect
Calls of active or inactive are those of the source. Calls follow the shape of the dose curve; as a rule, active = well fitted curve in the direction sought with a large enough effect; inconclusive = small, poorly fitted or top-dose-only effect, or effect the other way, or another doubt; inactive = no such curve, though single readings can be large or run the other way.
Response enum: 1 (yes) for active, 0 (no) for inactive

C#CCOC(=O)C1=CCCN(C)C1 : 0 (no)
Cc1cccc(-c2[nH]c(C(C)(C)C)nc2-c2ccc3nccnc3c2)n1 : 0 (no)
CCCN(CCC)[C@@H]1CCc2ccc(O)cc2C1 : 0 (no)
COc1ccc2c(c[n+](C)c3c4cc5c(cc4ccc23)OCO5)c1OC : 0 (no)
CC(Cc1ccc(O)cc1)NCC(O)c1cc(O)cc(O)c1 (stereo unspecified) : 0 (no)
CNCCc1c[nH]c2ccc(O)cc12 : 0 (no)
CCCN1CCO[C@@H]2c3cc(O)ccc3OC[C@H]21 : 0 (no)
NCCc1c[nH]c2ccccc12 : 0 (no)
Clc1cnc(Oc2ccc(Oc3ncc(Cl)cc3Cl)cc2)c(Cl)c1 : 0 (no)
CCn1cc(C(=O)O)c(=O)c2cc3c(cc21)OCO3 : 0 (no)

Input: How did this test come out for Cn1cnc(CCN)c1 ?
Output: 0 (no)

Input: Per the assay record, what outcome was assigned to CN1C2CCC1CC(OC(=O)c1cc(Cl)cc(Cl)c1)C2 (stereo unspecified) ?
Output: 0 (no)

Input: Called result for O=C1CCCN1CC#CCN1CCCC1
Output: 0 (no)

Input: Hi, do you know how C[C@]12N[C@H](Cc3ccccc31)c1ccccc12 came out in this test?
Output: 0 (no)

Input: Which outcome did this test record for the molecule O=C(O)CC[N+](=O)[O-] ?
Output: 0 (no)

Input: Name the outcome recorded for C[N+]1(C)C2CC(OC(=O)[C@H](CO)c3ccccc3)CC1C1OC12 (stereo partly specified) in the assay.
Output: 0 (no)

Input: What did the test return for CCc1c(C)[nH]c2c1C(=O)C(CN1CCOCC1)CC2 (stereo unspecified) ?
Output: 0 (no)

---

experiment: qHTS of pediatric cancer cell lines to identify multiple opportunities for drug repurposing: Primary screen for U-2 OS cells (AID 1347096); conditions: U-2 OS viability, CellTiter-Glo luminescence, 48 h; series mostly up to 46 µM; also: nearly all actives have a fitted effect of over 50% in size
Records with an inconclusive call do not appear. The source made the active and inactive calls. The call rests on the fitted dose curve; in most records, active means well fitted cell-killing curve with a large enough effect; inconclusive means small, poorly fitted or top-dose-only effect; inactive means flat fitted curve, though single readings scatter.
Your response should consist of one outcome taken from yes (active), no (inactive)

COC1=CC(C)=C[C@@H](C)[C@@H](O)[C@@H](C)CC(C)=CC=C[C@H](OC)[C@H]([C@@H](C)[C@@H](O)[C@H](C)[C@@]2(O)C[C@@H](O)[C@H](C)[C@@H](C(C)C)O2)OC1=O : yes
CC(=O)Nc1ccc(OC[C@](C)(O)C(=O)Nc2ccc([N+](=O)[O-])c(C(F)(F)F)c2)cc1 : no
O=C1C=CC[C@@H]2[C@H]3CCCN4CCC[C@@H](CN12)[C@@H]34 : no

Let us examine a further case.
Input: Which outcome was assigned to O=C(O)CNC(=O)c1c(O)c2ccccc2n(Cc2ccccc2)c1=O in this test?
Output: no

---

system: FAB9; experiment: qHTS profiling for inhibitors of Plasmodium falciparum proliferation (AID 504749); also: nearly all actives have a fitted effect of over 60% in size; details: P. falciparum in erythrocytes, SYBR Green DNA, 72 h; series mostly up to 28.7 µM
Records with an inconclusive call do not appear. Activity calls are given as the source filed them. Calls follow the shape of the dose curve; as a rule, active = well fitted inhibition curve with a large enough effect; inconclusive = small, poorly fitted or top-dose-only effect; inactive = flat fitted curve, though single readings scatter.
Field 'call' accepts active, inactive

These recorded examples may help you get a feel for the data.
CC[N+]1(CCOC(=O)C(O)(c2ccccc2)c2ccccc2)CCCCC1 : inactive
C[C@]12CCC(=O)C(O)=C1CC[C@@H]1[C@H]3CCC(=O)[C@@]3(C)CC[C@@H]12 : inactive
O=C(O)C(Cl)Cl : inactive
COC(C)(C)CCCC(C)C/C=C/C(C)=C/C(=O)OC(C)C (stereo unspecified) : inactive

Input: What did the test return for CCCCc1ccc(C(=O)O)nc1 ?
Output: inactive

Input: How did this test come out for CCCN1CCC[C@H](c2cccc(O)c2)C1 ?
Output: inactive

Input: Status in this test for O=C(O)COc1ccccc1 ?
Output: inactive

Input: Dear colleague, could you share the recorded outcome for CN1C2CCC1CC(OC(=O)c1cc(Cl)cc(Cl)c1)C2 (stereo unspecified) when you have a moment?
Output: inactive

Input: What did the test return for CC(=O)[O][Hg][c]1ccccc1 ?
Output: active

Input: Assay outcome for COC(=O)[C@@H](N)CCCN=C(N)N[N+](=O)[O-] : what was it?
Output: inactive

Input: Which outcome was entered for the compound Cc1cc(O)ccc1Cl in this test?
Output: inactive

---

test: Primary qHTS for inhibitors of MERS-S pseudo-typed particle cell entry (AID 1479149); conditions: MERS-S pseudotyped particle entry, luciferase; series mostly up to 57.1 µM; also: nearly all actives have a fitted effect of over 60% in size
Results filed as inconclusive are left out. Activity calls are given as the source filed them. The call rests on the fitted dose curve.
Output constraint: value belongs to True (active), False (inactive)

Sample answers from the record:
O=C(O)CNC(=O)CNC(=O)CNC(=O)CSC(=O)c1ccccc1 : False
CC(=O)[O][Hg][c]1ccccc1 : True
Clc1ccccc1CN1CCc2sccc2C1 : False
CC(C)C[C@H](NC(=O)CNC(=O)c1cc(Cl)ccc1Cl)B(O)O : True
COc1ccccc1O : False

Input: So what was the verdict on COc1ncnc(NS(=O)(=O)c2ccc(N)cc2)c1OC in this test?
Output: False

Input: Look up the recorded call for CC(C)(C)NCC(O)c1ccc(O)c(CO)c1 (stereo not drawn) in this test.
Output: False

Input: Outcome logged for CC(C)(C)c1nnc(NS(=O)(=O)c2ccccc2)s1 in this assay:
Output: False

Input: Please let me know the test result on file for CN1CCN(c2c(F)cc3c(=O)c(C(=O)O)cn4c3c2OCN4C)CC1 .
Output: False

---

system: Tov-21-G; experiment: Primary qHTS to identify gynecologic anti-cancer compounds using libraries of approved drugs and bioactive compounds (AID 1345084); details: Gynecologic cancer cell panel viability, ATPlite luminescence, 48 h; series mostly up to 57.5 µM; also: nearly all actives have a fitted effect of over 55% in size
Inconclusive results are not listed. Activity calls are given as the source filed them. The call rests on the fitted dose curve; in most records, active means well fitted cell-killing curve with a large enough effect; inconclusive means small, poorly fitted or top-dose-only effect, or effect the other way; inactive means flat fitted curve, though single readings scatter.
Hello, when you answer, please use one of the following outcomes: TRUE for active, FALSE for inactive

Input: Per the records of this test, what outcome belongs to O=S(=O)(O)C(F)(F)C(F)(F)C(F)(F)C(F)(F)F ?
Output: FALSE

Input: Per the records of this test, what outcome belongs to O=C(O)COc1nc(Cl)c(Cl)cc1Cl ?
Output: FALSE

Input: Per the records of this test, what outcome belongs to COc1ccc(C(c2ccc(OC)cc2)C(Cl)(Cl)Cl)cc1 ?
Output: FALSE

Input: Lab log entry: CC(C)N(CCNC(=O)CN1CCCC1=O)C(C)C — outcome as called in the assay?
Output: FALSE

Input: Short answer needed: outcome of this test for O=[N+]([O-])c1cc([N+](=O)[O-])c2ccccc2c1 ?
Output: FALSE
